# Ki annotations
- TARGET DESC: HIV protease (Human immunodeficiency virus type 1 group M subtype B)
- MEASUREMENT PROTOCOL: Enzymatic (FRET fluorometric) assay for determining the inhibition constant (Ki) of compounds targeting the HIV protease
- Assay type: biochemical
- RUN PARAMETERS: FRET substrate (EDANS/DABCYL), equation of Henderson; read-out: Ki

Recorded Ki, per entry:
                               input_smiles  measurement
0  Cc1ccc(S(=O)(=O)N(CC(C)C)[C@@H](CCCCNC(=S)N(Cc2ccccc2)Cc2ccccc2)C(=O)O)cc1     0.012 µM
1  COc1ccc(CN(Cc2ccncc2)C(=O)NCCCC[C@@H](CO)N(CC(C)C)S(=O)(=O)c2ccc(C)cc2)cc1     0.054 µM
2  CC(C)CN([C@H](CO)CCCCNC(=O)N(Cc1ccccc1)Cc1ccncc1)S(=O)(=O)c1ccc(N)cc1      0.09 µM
3  Cc1ccc(S(=O)(=O)N(CC(C)C)[C@@H](CCCCNC(=O)NCc2ccccc2)C(=O)O)cc1     0.032 µM
4  Cc1ccc(S(=O)(=O)N(CC(C)C)[C@@H](CCCCNC(=O)N(Cc2ccccc2)C(C)C)C(=O)O)cc1     0.019 µM

In: Which Ki is reported with HIV protease (Human immunodeficiency virus type 1 group M subtype B) for this entry: Cc1ccc(S(=O)(=O)N(CC(C)C)[C@@H](CCCCNC(=O)N(C)Cc2ccccc2)C(=O)O)cc1 ?
Out: 0.055 µM
